assay: 7AFZ production from FZ by purified NfsB proteins (HPLC); assay type: biochemical; conditions: anaerobic conditions, FIG. 2B
Value type: production of 7AFZ compared to the wild-type enzyme (in words)

[[record]]
molecule = "T41L (protein) MDIISVALKRHSTKAFDASKKLTPEQAEQIKTLLQYSPSSLNSQPWHFIVASTEEGKARVAKSAAGNYVFNERKMLDASHVVVFCAKTAMDDVWLKLVVDQEDADGRFATPEAKAANDKGRKFFADMHRKDLHDDAEWMAKQVYLNVGNFLLGVAALGLDAVPIEGFDAAILDAEFGLKEKGYTSLVVVPVGHHSVEDFNATLPKSRLPQNITLTEV"
result = "significantly increased"

[[record]]
molecule = "F70Y (protein) MDIISVALKRHSTKAFDASKKLTPEQAEQIKTLLQYSPSSTNSQPWHFIVASTEEGKARVAKSAAGNYVYNERKMLDASHVVVFCAKTAMDDVWLKLVVDQEDADGRFATPEAKAANDKGRKFFADMHRKDLHDDAEWMAKQVYLNVGNFLLGVAALGLDAVPIEGFDAAILDAEFGLKEKGYTSLVVVPVGHHSVEDFNATLPKSRLPQNITLTEV"
result = "higher activity"

[[record]]
molecule = "S40G (protein) MDIISVALKRHSTKAFDASKKLTPEQAEQIKTLLQYSPSGTNSQPWHFIVASTEEGKARVAKSAAGNYVFNERKMLDASHVVVFCAKTAMDDVWLKLVVDQEDADGRFATPEAKAANDKGRKFFADMHRKDLHDDAEWMAKQVYLNVGNFLLGVAALGLDAVPIEGFDAAILDAEFGLKEKGYTSLVVVPVGHHSVEDFNATLPKSRLPQNITLTEV"
result = "higher activity"

[[record]]
molecule = "F70H (protein) MDIISVALKRHSTKAFDASKKLTPEQAEQIKTLLQYSPSSTNSQPWHFIVASTEEGKARVAKSAAGNYVHNERKMLDASHVVVFCAKTAMDDVWLKLVVDQEDADGRFATPEAKAANDKGRKFFADMHRKDLHDDAEWMAKQVYLNVGNFLLGVAALGLDAVPIEGFDAAILDAEFGLKEKGYTSLVVVPVGHHSVEDFNATLPKSRLPQNITLTEV"
result = "higher activity"

[[record]]
molecule = "N71S (protein) MDIISVALKRHSTKAFDASKKLTPEQAEQIKTLLQYSPSSTNSQPWHFIVASTEEGKARVAKSAAGNYVFSERKMLDASHVVVFCAKTAMDDVWLKLVVDQEDADGRFATPEAKAANDKGRKFFADMHRKDLHDDAEWMAKQVYLNVGNFLLGVAALGLDAVPIEGFDAAILDAEFGLKEKGYTSLVVVPVGHHSVEDFNATLPKSRLPQNITLTEV"
result = "significantly increased"

[[record]]
molecule = "F124Y (protein) MDIISVALKRHSTKAFDASKKLTPEQAEQIKTLLQYSPSSTNSQPWHFIVASTEEGKARVAKSAAGNYVFNERKMLDASHVVVFCAKTAMDDVWLKLVVDQEDADGRFATPEAKAANDKGRKFYADMHRKDLHDDAEWMAKQVYLNVGNFLLGVAALGLDAVPIEGFDAAILDAEFGLKEKGYTSLVVVPVGHHSVEDFNATLPKSRLPQNITLTEV"
result = "higher activity"

[[record]]
molecule = "F124W (protein) MDIISVALKRHSTKAFDASKKLTPEQAEQIKTLLQYSPSSTNSQPWHFIVASTEEGKARVAKSAAGNYVFNERKMLDASHVVVFCAKTAMDDVWLKLVVDQEDADGRFATPEAKAANDKGRKFWADMHRKDLHDDAEWMAKQVYLNVGNFLLGVAALGLDAVPIEGFDAAILDAEFGLKEKGYTSLVVVPVGHHSVEDFNATLPKSRLPQNITLTEV"
result = "significantly increased"

[[record]]
molecule = "F124H (protein) MDIISVALKRHSTKAFDASKKLTPEQAEQIKTLLQYSPSSTNSQPWHFIVASTEEGKARVAKSAAGNYVFNERKMLDASHVVVFCAKTAMDDVWLKLVVDQEDADGRFATPEAKAANDKGRKFHADMHRKDLHDDAEWMAKQVYLNVGNFLLGVAALGLDAVPIEGFDAAILDAEFGLKEKGYTSLVVVPVGHHSVEDFNATLPKSRLPQNITLTEV"
result = "significantly increased"

[[record]]
molecule = "Y68G (protein) MDIISVALKRHSTKAFDASKKLTPEQAEQIKTLLQYSPSSTNSQPWHFIVASTEEGKARVAKSAAGNGVFNERKMLDASHVVVFCAKTAMDDVWLKLVVDQEDADGRFATPEAKAANDKGRKFFADMHRKDLHDDAEWMAKQVYLNVGNFLLGVAALGLDAVPIEGFDAAILDAEFGLKEKGYTSLVVVPVGHHSVEDFNATLPKSRLPQNITLTEV"
result = "significantly increased"

